Experiment: STM_H9_NormalizedViability: Cytotoxicity Assessment at 120 hours in the Stemina devTOX quickPredict H9 human embryonic stem cell (hESC)-based Assay (AID 2283784)
Results filed as inconclusive are left out. Calls of active or inactive are those of the source. How the source made its calls: active means hit-call score of the fitted dose curve at least 0.9, where 1 is the maximum; inconclusive means response in the unintended direction; inactive means score below 0.9.
Outcomes: active, inactive

compound=C[N+]1(C)CCCCC1 class=inactive
compound=O=[N+]([O-])c1cc(C(F)(F)F)c(Cl)c([N+](=O)[O-])c1Nc1ncc(C(F)(F)F)cc1Cl class=active
compound=CSc1nnc(C(C)(C)C)c(=O)n1N class=inactive
compound="CCC(=NOC/C=C/Cl)C1=C(O)CC(C2CCOCC2)CC1=O (configuration not stated)" class=inactive
compound=CCOP(=S)(OCC)Oc1cc(C)nc(C(C)C)n1 class=active
compound="FC(F)C(F)(F)OCC(Cn1cncn1)c1ccc(Cl)cc1Cl (configuration not stated)" class=inactive
compound=N#CSCSC#N class=active
compound=CN(C)[C@@H]1C(=O)C(C(N)=O)=C(O)[C@@]2(O)C(=O)C3=C(O)c4c(O)cccc4[C@@](C)(O)[C@H]3[C@H](O)[C@@H]12 class=active
compound=CC1=NNC(=O)N(/N=C/c2cccnc2)C1 class=inactive
compound="CC(C1CC1)C(O)(Cn1cncn1)c1ccc(Cl)cc1 (configuration not stated)" class=inactive
compound=CC(C)[C@H](C(=O)O[C@H](C#N)c1cccc(Oc2ccccc2)c1)c1ccc(Cl)cc1 class=inactive
compound=CON=C(C(=O)OC)c1ccccc1CON=C(C)c1cccc(C(F)(F)F)c1 class=inactive
